- assay-explanation: soluble on expression in E. coli; label from the status in PepcDB or PDB records
value-type: soluble on expression in E. coli

{"item-sequence": "MSLDSLYVNDFYKGDRNITKFLKLELEMYDWKLMILHYLGLDHIGHVEGPFSDKVPGKLKEMDKVIKTIYHTMDKWKYYTKPLLVITGDHGMRDSGGHGGSSHAETIVPVVIVSDQCAKSEETFLQIDEGHHHHHH", "soluble on expression in E. coli": "not soluble"}
{"item-sequence": "MEQRLLAVFDFDGTITRHDSFVPFLKFAFGQRVFSVRMARLVLPSLGYLTKRLSRDELKGRLIKAFLSGVEVQWLQQKAEAFCHSHWKRLMRPAALESIAAEIEKGAIVTLCSASPAMVLQPFADRLKVELIGTNLEVIDGKLTGLIEGSNCRCDSKVARLESVYGPLTQFRVRAWGDTRGDHELLAAAQDAHWRLFHPTWRRGRYKGPVNAKLHNPDGKDGPTR", "soluble on expression in E. coli": "not soluble"}
{"item-sequence": "MIIVRLCGGLGNQMFQYAAGLAAAHRIGSEVKFDTHWFDATCLHQGLELRRVFGLELPEPSSKDLRKVLGACVHPAVRRLLSRRLLRALRPKSLVIQPHFHYWTGFEHLTDNVYLEGYWQSERYFSNIADIIRQQFRFVEPLDPHNAALMDEMQSGVSVSLHIRRGDYFNNPQMRRVHGVDLSEYYPAAVATMIEKTNAERFYVFSDDPQWVLEHLKLPVSYTVVDHNRGAASYRDMQLMSACRHHIIANSTFSWWGAWLNPRPDKVVIAPRHWFNVDVFDTRDLYCPEWIVLLEHHHHHH", "soluble on expression in E. coli": "soluble"}
{"item-sequence": "MFVVPRRLSSFLSLVHEYRHLARRSYVMETPSIDIQNIRAKYLNSHDPYLLESKLPTTSPFELFDIWFRNVASQSDLTFEEINAVSLSTVGKDLRPSSRMVLLKAYTPTGFSFYTNYTSRKGNQLEENPNAAMLFYWPKVNRQIRVEGVVEKLPDEMAVAYWNSRPVASRIGSKSSDQSKVVPDREFLESKKVALTELSVREGAQAITKPESWGGYHLIPRYFEFWQGQSDRLHDRIVFERDVDVWLLKRLSP", "soluble on expression in E. coli": "not soluble"}
{"item-sequence": "MPSYKLTYFFFRGLGEPIRLLFHLAGVQFEEVRMNPDQTWLDIKDSTPMKQLPVLNIDGFELPQSGAILRYLARKFGFAGKTPEEEAWVDAVHDLFKDFLAEFKKFAAERRSGKSAEEVEKFRSEFFLPARNTYFNILNGLLEKSNSGFLIGSDITFADLVVVDNLLTLKNYGLFDESEFTKLAALREKVNSYPGIKEYIAKRPVTEY", "soluble on expression in E. coli": "soluble"}
{"item-sequence": "LQELSITNFAIIEHLDIAFEAGMTVLTGETGAGKSIIIDAVGLLAGGRGSAEFIRTGADKAVLQGMFILPADGVTAQLLDEAGIEHADNTVILQREITKSGRNTCRINGMLVNTTTLKQIGETIVDIHGQNEHQELMQPEKHLGLLDEFATA", "soluble on expression in E. coli": "not soluble"}

The record that follows has no soluble on expression in E. coli shown yet.
Using known records, supply soluble on expression in E. coli for `IDSGLSPSVLMASNSGRRSAPPLNLTGLPGTEKLNEKEKELCQVVRLVPGAYLEYKSALLNECHKQGGLRLAQARALIKIDVNKTRKIYDFLIREGYITKA` soluble

---

- assay-explanation: soluble on expression in E. coli; label from the status in PepcDB or PDB records
value-type: soluble on expression in E. coli

{"item-sequence": "PDMKESMSDLYYEMISSAQKSIWIATPYFVPNESIRTALKAAATKGVEVRVMVPEKNDSFLTQYASRSYFPELLLEGIEVYSYQKGFMHQKVMIIDGDLASVGTANMDMRSFQLNFEVNVFFTDAEAIRTLEAHFEEDMQESEKLS", "value-type": "soluble on expression in E. coli", "result": "soluble"}
{"item-sequence": "MAHHHHHHMSTRRLMHTMIRVGDLDRSIKFYTEALGMRLLRKWDCPEDKFTLVFLGYGTESETAVLELTYNYGQSEYKHGDAYGHIAIGVEDVNEEIARLKKMNVPIDYESEDGFMAFIVDPDGYYIELLNTERMLEKSREQMNEQGTA", "value-type": "soluble on expression in E. coli", "result": "soluble"}
{"item-sequence": "SNAMKTEKDKMLAGEMYIADDEELVADRVEAKRLTRLYNEAVETGDERRFTLLNQLLGSSADGKAQINPDFRCDYGYNIHVGKSFFANFNCVILDVCEVRIGDHCMFAPGVHIYTATHPLHPVERNSGKEYGKPVKIGNNVWVGGGAIINPGVSIGDNAVIASGAVVTKDVPNNVVVGGNPAKVIKTIEE", "value-type": "soluble on expression in E. coli", "result": "soluble"}

---

- assay-explanation: soluble on expression in E. coli; label from the status in PepcDB or PDB records
value-type: soluble on expression in E. coli

{"item-sequence": "MAALSDKLADAYQNARPRYPIDWFTKLAARTGQHKSAWDVGTGNGQAAIGLAEYFEKVTATDINEAQLKRAVKHERISYHHTPTTMSEDQMVALVGGDNSVDLIVAAQAVHYFDLAPFYNVAKRVLRKEGGLIAVFVYNDIIISPEVDSIMKRLVDSTFPFRTPVMNLAFDGYKTLPFPFESIGMGSEGKPIMLDIPHKLSLKGFIGFLRSWQPAMKAKERGVELVTEDLISKFEDAWGDDDDVKDIFYKAHMIVGKLSASDIERHRKRFDTNCVVTTLKDHNNSAVIASVTAAAFAGVAAYCAYSARKNS", "value-type": "soluble on expression in E. coli", "result": "soluble"}
{"item-sequence": "MEPADEPSELVSAEGRNRKAVLCQRCGSRVLQPGTALFSRRQLFLPSMRKKPALSDGSNPDGDLLQEHWLVEDMFIFENVGFTKDVGNIKFLVCADCEIGPIGWHCLDDKNSFYVALERVSHE", "value-type": "soluble on expression in E. coli", "result": "soluble"}
{"item-sequence": "MIKQNSFVPYPEAMLPKGFKYPQSYLKLAQSTHAINYDEQYSFPWWFENAESNISEVIDIYFEITGIPNLLPFARNQEWAACFDISDKSGNPKIIVVNLDNTKYYETFENFDTWLKEAENDGW", "value-type": "soluble on expression in E. coli", "result": "soluble"}

---

- assay-explanation: soluble on expression in E. coli; label from the status in PepcDB or PDB records
value-type: soluble on expression in E. coli

{"item-sequence": "MANKLTILASVVAASTAMMATSAQAADTTLDKVTKQGFLTCGVSTGLPGFSNPNSKGEWEGIDVEYCQALAAAVLGDKTKVKYVPLTAKERFTALQSGEIDVLSRNTTWTLHRDTALGLNFVGVNYYDGQGFMVKKDLGISSAKELDGASVCVQSGTTTELNLADYFRNSGMSYKPVVFDTAAQTSKGFDAGRCDVLTTDQSGLYALRLNLKDPSSAAVLPEIISKEPLGPVVRQGDDQWFNIAKWTLAAMVNAEEYGITSKNADEMLKSQDPNIKRILGVDGPKGKGLGIRDDWGYQVVKQVGNYGESFERTVGKGSPLEIARGVNALWNAGGFMYAPPIR", "soluble on expression in E. coli": "not soluble"}
{"item-sequence": "GSKVVKFSYMWTINNFSFCREEMGEVIKSSTFSSGANDKLKWCLRVNPKGLDEESKDYLSLYLLLVSCPKSEVRAKFKFSILNAKGEETKAMESQRAYRFVQGKDWGFKKFIRRGFLLDEANGLLPDDKLTLFCEVSVVQDSVNISGQNTMNMVKVPECRLADELGGLWENSRFTDCCLCVAGQEFQAHKAILAARSPVFSAMFEHEMEESKKNRVEINDVEPEVFKEMMCFIYTGKAPNLDKMADDLLAAADKYALERLKVMCEDALCSNLSVENAAEILILADLHSADQLKTQAVDFINYHATDVLETSG", "soluble on expression in E. coli": "soluble"}
{"item-sequence": "MRLLIITGISGAGKSLVVKYLEDIGFFCVDNLPPLLIGKFAEICLKSRGKISKVALVIDIRGGELFNDLVPELNALKESGIDYEILFLEASDQVLIKRYKESRRIHPLAPEGRLIKGIKTEREILSQIRKNATYIIDTSNLTPRQLKEEILAIFVEGRKFDGMIVNIISFGFKYGIPIECDLVFDVRFIPNPYYIESMKYKTGKDEEVRNYVMSFAETAEFMTKLKDLVDFLIPNYIKEGKSQLVIGVGCTGGRHRSVAISEALFSYLCGREHRVFIDHRDIDKDGRSNRR", "soluble on expression in E. coli": "soluble"}
{"item-sequence": "MQRMGMVIGVKPEMIAEYKRLHAAVWPEVLALISESNIRNYTIFLREPENLLFGYWEYHGSDFSADMAKIAASPKNQEWWSFTIPCQQPLESRKEGEWWAMMEETFHLD", "soluble on expression in E. coli": "not soluble"}

Would you mind listing soluble on expression in E. coli for each of the following sequences?
1. LGIDLLSYYIEAGSCMIYYNEKPYIDEFQQYVSDNDISTTDVEQYDEWMSEHDVAFYSVQEMGKVIYNKSNVDKLISPAKNMYDYRFTGSYELPVQFSDIEAEVFIYTGFTEKYY
2. MYDVAIIGAGVIGCSIFRELTKYDLRVVVLEKEKDVSMGTSKANSAIVHAGYDPEEGTLMAKYNVKGNEMFEELCKELSVPFKRNGSLVLAFDKEDMFKVKHLYENGSKLGVKGLKILNRDEVLKMEPNLNDKIEGALYAPTGGIVGPFEYTIALAENGVTNGGKIKLKKEVVSIKKRDVFKIGTEDGETIEAKFVINAAGVYADKIHNLVCKESFKISPRSGEYFVMDKSQGNVVKHTIFQCPSKLGKGVLITPTVHGNLLVGPDARDVEDKEDVGTVFEGLDYVKEASMRSTKEVNFRESIRNFAGLRANPDTGDFIVEENDEVKGFIDVAGMKSPGLSSAPAIAVDVVNILSSAGCSLKK
3. MLRRRTFLSWSSGKDSAWALHVLRQDPHVDVIGLFCTVNKVFDRVVMHGVRVALLQQQAESAGLPLHIIEIPYPCSNDEYASAMSAFVDSARKENIECFAFGDLLLEDVRQYREDRLNGTGITPIFPLWGIPTKTLSREMVAGGLKAVITCIDPKRIPESFAGREYNESFLDDIPGSVDPCGEYGEFHTFSFDGPMFQNPIDVVLGETVHRDGFVFTDLLSLTSSTEPTH
4. GPGSMNLGHAAASSIVVKVAELAKKAFYRLKISSAYSSKLTEAVGTALMSADPEVPVDPNRRSGGHVIRNMIYQHDSSHNIEIVTGWKDQGTREYNQQIAPPAKLDLSPKHPCYPLNEQLVRCSLECPMEMKLAGRIASCNSERKNLMVCLTKNKSWKEEPASAWYKFF
5. SMRYRQITIPRGKDGFGFTICCDSPVRVQAVDSGGPAERAGLQQLDTVLQLNERPVEHWKCVELAHEIRSCPSEIILLVWRMVPQVKPGPD
6. MSLSDLSAFAVTQKWPAQFPEWIQLYSLPTPNGVKVSVMLEEIGLPYEAHRVSFETQDQMTPEFLSVSPNNKIPAILDPHGPGDQPLALFESGAILIYLADKSGQLLAQESAARYETIQWLMFQMGGIGPMFGQVGFFNKFAGREYEDKRPLERYVNEAKRLLGVLDKHLGGREWIMGERYTIADIATFPWIRNLIGFYEAGELVGIDNFPEVKRVLAKFVARPAVIRGLEIPKVSEGHHHHHH
7. MSLTRLLIRDFRNIETADLALSPGFNFLVGANGSGKTSVLEAIYTLGHGRAFRSLQIGRVIRHEQEAFVLHGRLQGEERETAIGLTKDKQGDSKVRIDGTDGHKVAELAHLMPMQLITPEGFTLLNGGPKYRRAFLDWGCFHNEPGFFTAWSNLKRLLKQRNAALRQVTRYEQLRPWDKELIPLAEQISTWRAEYSAGIAADMADTCKQFLPEFSLTFSFQRGWEKETEYAEVLERNFERDRQLTYTAHGPHKADLRIRADGAPVEDTLSRGQLKLLMCALRLAQGEFLTRESGRRCLYLIDDFASELDDERRGLLASRLKATQSQVFVSAISAEHVIDMSDENSKMFTVEKGKITD

1: not soluble; 2: not soluble; 3: not soluble; 4: not soluble; 5: soluble; 6: soluble; 7: soluble

Would you mind listing soluble on expression in E. coli for each of the following sequences?
1. MGSDKIHHHHHHMITHRSDLNANYLLNALPRSEWESLAQHVELVRLRAGELLTDSGQRIVHVYFPTTSVVSLLSLLEDGATVEIAAVGNEGLVGVPVVTGGDTMPCRVEVRSPGLAYRIPARLLRSELPRTPTLQRVTLLYVQAMLTQIAQTAACNRHHSLNKQLCRWLLLAVDRLSSNELVITQQVIANMLGVRREGVTEAAGKLEDLGLIHHSRGHITVLDRCGLEKHSCECYKLVKREYDRLLPALAHA
2. LSFQDELMRALNPDVLVVQKRPEGVLPLDELVRRIEGAEPGRKVAFVWVEMDSDKAGRIFYTPPPGQRRGESRWIDPYTGAFVGEPRGEGFFNLMMQLHRFLAMGEYGKQV

not soluble
not soluble
